biological target: UniProt P00533; assay: Biochemical EGFR kinase inhibition assay (Lance Ultra TR-FRET), wildtype; conditions: Km ATP; read-out: IC50 WT (nM) Km ATP
Sequence (P00533 25-1210): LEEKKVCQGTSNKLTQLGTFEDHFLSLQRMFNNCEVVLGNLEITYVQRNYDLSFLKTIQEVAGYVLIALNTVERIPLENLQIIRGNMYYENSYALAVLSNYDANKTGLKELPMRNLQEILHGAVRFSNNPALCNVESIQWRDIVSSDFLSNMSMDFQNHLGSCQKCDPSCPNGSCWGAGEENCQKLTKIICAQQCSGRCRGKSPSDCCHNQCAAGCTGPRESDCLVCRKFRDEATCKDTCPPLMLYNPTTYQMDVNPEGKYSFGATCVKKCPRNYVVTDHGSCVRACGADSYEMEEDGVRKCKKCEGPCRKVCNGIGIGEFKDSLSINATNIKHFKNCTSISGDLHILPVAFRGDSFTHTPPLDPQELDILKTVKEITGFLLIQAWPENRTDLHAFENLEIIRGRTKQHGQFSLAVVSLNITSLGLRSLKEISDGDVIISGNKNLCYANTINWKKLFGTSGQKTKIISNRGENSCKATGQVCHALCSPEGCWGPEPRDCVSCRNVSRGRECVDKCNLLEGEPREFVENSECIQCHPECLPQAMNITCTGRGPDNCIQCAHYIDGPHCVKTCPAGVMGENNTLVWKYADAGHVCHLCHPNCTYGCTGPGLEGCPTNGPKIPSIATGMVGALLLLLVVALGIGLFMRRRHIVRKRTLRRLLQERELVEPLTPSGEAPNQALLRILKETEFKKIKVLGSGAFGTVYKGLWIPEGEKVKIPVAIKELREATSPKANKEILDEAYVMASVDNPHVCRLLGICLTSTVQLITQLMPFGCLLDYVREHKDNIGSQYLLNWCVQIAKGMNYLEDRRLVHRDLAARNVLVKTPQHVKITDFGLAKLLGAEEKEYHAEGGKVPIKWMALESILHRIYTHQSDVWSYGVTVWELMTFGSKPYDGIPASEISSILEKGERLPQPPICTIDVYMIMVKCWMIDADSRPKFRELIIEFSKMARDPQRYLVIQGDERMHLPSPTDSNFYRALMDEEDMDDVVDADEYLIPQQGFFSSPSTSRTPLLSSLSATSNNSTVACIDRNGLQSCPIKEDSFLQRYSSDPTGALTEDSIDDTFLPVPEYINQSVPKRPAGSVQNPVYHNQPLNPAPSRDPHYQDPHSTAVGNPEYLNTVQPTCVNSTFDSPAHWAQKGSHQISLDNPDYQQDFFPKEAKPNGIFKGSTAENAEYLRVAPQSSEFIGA
MEASURED PARAMETER: IC50 (nM)

// below: answered compounds
- CC(=O)N1CCC(n2cc(C#Cc3cnc(Nc4ccnc(-c5cnn(S(=O)(=O)C6CC6)c5)n4)cc3N[C@H]3CC[C@@H](O)CC3)cn2)CC1: 10.4
- CN(C)CCCn1cc(C#Cc2cnc(Nc3ccnc(-c4cnn(S(=O)(=O)C5CC5)c4)n3)cc2N2CCC(NCCF)CC2)cn1: 14.2
- CN(C)CCCn1cc(C#Cc2cnc(Nc3ccnc(-c4cnn(S(=O)(=O)C5CC5)c4)n3)cc2N[C@H]2CC[C@@H](O)CC2)cn1: 3.6

I. Cn1cc(C#Cc2cnc(Nc3ccnc(-c4cnn(S(=O)(=O)C5CC5)c4)n3)cc2NC2CCCCC2)cn1
II. CC(=O)N1CCC(n2cc(C#Cc3cnc(Nc4ccnc(-c5cnn(S(=O)(=O)C6CC6)c5)n4)cc3N3CCC(NCCN(C)C)CC3)cn2)CC1
Query string: Of I and II , which carries the smaller reported IC50 figure? Return value: the label identifying the chosen record.
Result string: II

###

molecular target: UniProtKB P00533; experiment: Biochemical EGFR kinase inhibition assay (Lance Ultra TR-FRET), wildtype; details: IC50 WT (nM), 100 μM ATP
MEASURED PARAMETER: IC50

* CC(C)Nc1cc(Nc2ccnc(-c3cnn(S(=O)(=O)C4CC4)c3)n2)ncc1C#Cc1cnn(C)c1 [Example 18] | > 10000 nM
* CC1(CO)CCN(c2cc(Nc3ccnc(-c4cnn(S(=O)(=O)C5CC5)c4)n3)ncc2C#CC2CCOC2)CC1 (centres unmarked) [Example 197] | 1560 nM
* CC1(C#Cc2cnc(Nc3ccnc(-c4cnn(S(=O)(=O)C5CC5)c4)n3)cc2N[C@H]2CC[C@@H](O)CC2)COC1 [Example 350] | > 10000 nM
* O=S(=O)(C1CC1)n1cc(-c2nccc(Nc3cc(NC4CCC(CO)CC4)c(C#Cc4cnn(C5CC5(F)F)c4)cn3)n2)cn1 (centres unmarked) [Example 327] | > 10000 nM
* CC1(O)CCN(c2cc(Nc3ccnc(-c4cnn(S(=O)(=O)C5CC5)c4)n3)ncc2C#CC2CCS(=O)(=O)C2)CC1 (centres unmarked) [Example 429] | 6020 nM

Measured IC50 for this entry O=C(N1CCC(C#Cc2cnc(Nc3ccnc(-c4cnn(S(=O)(=O)C5CC5)c4)n3)cc2NCC2CCC(O)CC2)C1)C(F)(F)F (centres unmarked) [Example 409] on UniProtKB P00533: > 10000 nM

# value of IC50, UniProtKB P00533, item Cn1cc(C#Cc2cnc(Nc3ccnc(-c4cnn(S(=O)(=O)C5CC5)c4)n3)cc2N2CCCC(CO)C2)cn1 (centres unmarked) [Example 9] = > 10000 nM

Summary line: CN(C)CC1(C)CCN(c2cc(Nc3ccnc(-c4cnn(S(=O)(=O)C5CC5)c4)n3)ncc2C#CC2CCN(C(=O)C(F)(F)F)C2)CC1 (centres unmarked) [Example 412] , UniProtKB P00533, reported IC50 = > 10000 nM

Recorded IC50 for CN(C)C[C@@H]1CCCN(c2cc(Nc3ccnc(-c4cnn(S(=O)(=O)C5CC5)c4)n3)ncc2C#Cc2cnn(CCF)c2)C1 [Example 385] on UniProtKB P00533 was > 10000 nM

The reported UniProtKB P00533 IC50 of CC(C)(O)C1CCN(c2cc(Nc3ccnc(-c4cnn(S(=O)(=O)C5CC5)c4)n3)ncc2C#Cc2cnn(C(F)(F)F)c2)CC1 [Example 329] is > 10000 nM
